Values were extracted from paper PMC3933693.

Target: mGPDH (Rattus norvegicus, UniProt P35571)
Construct: Activity of mGPDH in frozen-thawed skeletal muscle mitochondria was measured; from tissue; host or cells: skeletal muscle mitochondria
Sequence (P35571 43-727): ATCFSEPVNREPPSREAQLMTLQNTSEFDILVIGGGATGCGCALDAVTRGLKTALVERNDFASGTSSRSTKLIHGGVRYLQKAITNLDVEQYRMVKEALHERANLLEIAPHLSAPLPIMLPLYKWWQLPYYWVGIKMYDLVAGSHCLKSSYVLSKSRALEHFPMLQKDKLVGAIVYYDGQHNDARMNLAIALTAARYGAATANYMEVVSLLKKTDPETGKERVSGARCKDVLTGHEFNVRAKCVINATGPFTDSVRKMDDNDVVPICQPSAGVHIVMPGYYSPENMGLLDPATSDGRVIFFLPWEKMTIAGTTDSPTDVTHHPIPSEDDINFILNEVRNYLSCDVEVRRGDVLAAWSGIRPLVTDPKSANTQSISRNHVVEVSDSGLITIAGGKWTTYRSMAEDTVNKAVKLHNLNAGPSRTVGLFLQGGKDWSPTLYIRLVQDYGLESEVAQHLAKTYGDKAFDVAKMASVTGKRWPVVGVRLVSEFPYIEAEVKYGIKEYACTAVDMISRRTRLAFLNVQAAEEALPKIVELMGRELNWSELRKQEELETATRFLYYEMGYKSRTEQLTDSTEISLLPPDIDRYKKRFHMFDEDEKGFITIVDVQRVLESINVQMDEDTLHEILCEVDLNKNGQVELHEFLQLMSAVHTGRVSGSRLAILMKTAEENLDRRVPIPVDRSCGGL
Experiment: Superoxide/H2O2 production by mGPDH in isolated skeletal muscle mitochondria (Amplex UltraRed)
Assay type: biochemical
Conditions: primary screen, ∼2.5 µM, average of duplicates; 16.7 mM glycerol phosphate, no added calcium
measured.parameter: mGPDH (% change from DMSO) (%)
State just the number; it will be interpreted in %.

Below are worked cases with known answers.
compound	readout.value
Cc1ccc(S(=O)(=O)CCC#N)cc1C	-12.4
Cc1ccc(NC(=O)c2ccc(C(C)(C)C)cc2)cc1	-11.4
COc1ccc(O)c(CN2CCC(N3CCCCC3)CC2)c1	-18.0
COc1ccc(C(=O)Nc2ccc(S(=O)(=O)Nc3nc(C)cc(C)n3)cc2)c(OC)c1	-29.8
COc1ccc(NCCNc2ccc(OC)cc2)cc1	-37.5
O=C(Nc1ccc(O)cc1)c1ccco1	-26.4
CC1=Nc2c([nH]c3ccccc23)-c2cc(C)ccc2N1.Cl	-31.6
Nc1ccccc1S(=O)(=O)Nc1cccc2cccnc12	-16.1

Ask: Please give the measured mGPDH (% change from DMSO) for this compound: CN(C)c1nc2ccc(O)cc2s1
Result: -68.8

Ask: // next record O=C1N=C(c2ccccc2)C(c2ccccc2)N1 (stereo not shown)
Result: -13.1

Ask: // next record CC(C)CSC(CC(=O)O)C(=O)O (stereo not shown)
Result: -10.7

Ask: // next record CCC1CCCCN1C/C=C/c1ccc(N(C)C)cc1 (stereo not shown)
Result: -10.7

Ask: // next record Cc1nc2ccc(Cl)cc2c2c(N)c3ccccc3n12
Result: -23.3

Ask: // next record COc1ccc(CNc2cccc(N(C)C)c2)cc1
Result: -29.7

Ask: // next record O=C(O)CCC(=O)Nc1ccc(-c2nc3ccccc3[nH]2)cc1
Result: -21.6

====

Recorded mGPDH (% change from DMSO) for the following compounds
target: mGPDH (Rattus norvegicus); construct: Activity of mGPDH in frozen-thawed skeletal muscle mitochondria was measured; from tissue; host or cells: skeletal muscle mitochondria; assay: Superoxide/H2O2 production by mGPDH in isolated skeletal muscle mitochondria (Amplex UltraRed); type: biochemical; conditions: primary screen, ∼2.5 µM, average of duplicates; 16.7 mM glycerol phosphate, no added calcium
Answer format: value, then unit.

Below are worked cases with known answers.
structure.as.smiles	mGPDH (% change from DMSO)
CC(=O)N(C)c1ccc(NC(=O)c2ccc(-c3ccccc3)cc2)cc1	-10.7%
Nc1cc(C(=O)O)c(N)cc1C(=O)O	-10.8%
NC(=O)Cc1c[nH]c2cccc(O)c12	-32.1%
CCCCc1c(C(=O)O)cc(C)cc1C(=O)O	-10.0%
Cn1c(/C=C/c2ccc(Cl)cc2)nc2ccccc21	-12.9%

Ask: Please give the measured mGPDH (% change from DMSO) for this compound: O=C(Cc1ccccc1)Nc1cc(C(=O)O)c(NC(=O)Cc2ccccc2)cc1C(=O)O
Result: -31.6%

Ask: // next record Nc1nc(-c2ccc(Cl)c(Cl)c2)cs1
Result: -10.3%

Ask: // next record Cc1ccc(S(=O)(=O)c2cc(O)ccc2O)cc1C
Result: -21.9%

Ask: // next record O=C1c2ccccc2C(=O)N1CCc1c[nH]c2ccc(O)cc12
Result: -16.2%

====

target: mGPDH (Rattus norvegicus); construct: Activity of mGPDH in frozen-thawed skeletal muscle mitochondria was measured; from tissue; host or cells: skeletal muscle mitochondria; assay: Superoxide/H2O2 production by mGPDH in isolated skeletal muscle mitochondria (Amplex UltraRed); assay type: biochemical; conditions: primary screen, ∼2.5 µM, average of duplicates; 16.7 mM glycerol phosphate, no added calcium
Recorded mGPDH (% change from DMSO) for the following molecules
State just the number; it will be interpreted in %.

molecule	mGPDH (% change from DMSO), %
CCCCSc1nnc2c(n1)[nH]c1ccc(C)cc12 [compound 5225633]	-10.0
COc1ccc(NCC2CCCCC2)cc1 [compound 5454631]	-20.6
O=C(O)CSc1cccc(C(=O)Nc2ccc(Br)cc2)c1 [compound 5210767]	-14.1
CCN1CCN(C/C=C/c2ccc(N(C)C)cc2)CC1 [compound 5424907]	-13.4
CC(=O)c1c(C)n(-c2ccccc2)c2ccc(O)cc12 [compound 5215317]	-14.1
c1coc(CNc2ccc3c(c2)OCO3)c1 [compound 5457094]	-20.2

Moving on to the next molecule.
Ask: Please give the measured mGPDH (% change from DMSO) for this molecule: CC1(C)CC(=O)C2=C(C1)Nc1cc(Cl)ccc1S2 [compound 5219661]
Result: -22.7
